Below: a set of entries, each annotated with reported melting point.
Quantity: melting point

| Compound | Measured value |
| --- | --- |
| Cc1cccc2nc3c(nc12)C=CCC3=O | 133 to 135 °C |
| CC1=C(C(=O)OC2CCCC2)C(c2c(F)cccc2Cl)C(C(=O)n2ccnc2)=C(C)N1 (centres undefined) | 150 °C |
| O=C(O)CCS(=O)CCC(=O)O | 114 °C |
| NC(=O)CC1CN(Cc2ccccc2)CCN1Cc1ccccc1 (centres undefined) | 114 °C |
| COc1cc(NCCCCCCN2CCN(c3ccc(Cl)c(Cl)c3)CC2)c2nccc(C)c2c1 | 92 to 94 °C |
| COc1cc(N)c([N+](=O)[O-])cc1NCCO | 165 °C |
| Oc1nc2c([nH]1)CCCCC2 | 272 °C |
| CN(C)C(=O)N1CCC2(CC1)CN=C(c1cc3cccc(N(C)S(=O)(=O)c4cccs4)c3[nH]1)S2 | 245 °C |
| COc1cc2c(c3c1OC(C)(C)C3)C(c1cccc(SCC(N)=O)c1)=NC(C)(C)C2 | 118 to 120 °C |
| CON=C(C(C)=O)C(=O)OC | 64.4 °C |
| Cc1ccc(N(C)C(=O)CN(C(=O)CNC(=O)Nc2cccc(C)c2)c2ccccc2)cc1 | 162 °C |
| COc1ccc(-c2cc(OC3SCC(OC(C)=O)C(OC(C)=O)C3OC(C)=O)ccn2)cc1 (centres undefined) | 113 to 114 °C |
| Cc1cc(C(O)(CNC(=O)c2ccc(Cl)cc2)C(F)(F)F)ccc1NC(=O)OC(C)(C)C (centres undefined) | 160 to 162 °C |
| Cc1ccc(Cc2cnc(NCCCN)[nH]c2=O)cn1 | 162 to 164 °C |
| COc1ccccc1Nc1ccc2c(c1)OCc1cc(N)ccc1C2=O | 68.4 °C |
| CC(C)C[C@H](NC(=O)Cc1csc2ccccc12)C(=O)N[C@@H](Cc1ccccc1)C(=O)CSCc1ccco1 | 150 to 153 °C |
| CCCCC(Cc1ccc(OCCNC(=O)c2ccc(-c3ccc(CO)cc3)cc2)cc1)C(=O)O (centres undefined) | 111 to 113 °C |
| CS(=O)(=O)c1ccc(-n2ncc(C#N)c2-c2ccc(-c3ccco3)cc2)cc1 | 229 to 230 °C |
| CS(=O)(=O)N(c1cccc(CN2CCN(C(c3ccccc3)c3ccccc3)CC2)n1)S(C)(=O)=O | 167 to 169 °C |
| COc1cccc(-c2nc(Cl)nc(Nc3ccc(O)cc3)n2)c1 | 164 °C |
| COc1cc(COc2ccc(N)nn2)cc(OC)c1OC | 142 to 144 °C |
| Cc1cc(SC2=C(O)CC(CCC(C)C)(C3CCCC3)OC2=O)c(C(C)(C)C)cc1CO (centres undefined) | 74 to 77 °C |
| N#CCCCOc1ccc(CNc2ccc(-n3nc(-c4cccnc4)cc3C#N)cc2)cc1 | 128 to 129 °C |
| COc1cc(OC)c2c(=O)[nH]c(-c3ccc(N4C[C@@H](C)N(C(C)=O)[C@@H](C)C4)cc3)nc2n1 | 279 to 280 °C |
| O=C(O)C1(CCCCCC(O)CCCCCC2(C(=O)O)CC2)CC1 | 87 to 91 °C |
| Cc1ccc(-n2c(=O)cc(C(F)(F)F)[nH]c2=S)cc1OC(C)C | 227 to 228 °C |
| CC1(C)CC(=O)NC2CCCCC2N1CCO (centres undefined) | 154 to 156 °C |
| CC1CCc2c(N3CCN(Cc4ccc(N)cc4)CC3)c(F)cc3c(=O)c(C(=O)O)cn1c23 (centres undefined) | 216 to 218 °C |
| CCCc1c(C(=O)C(C)C)c2ccc(C(N)=O)cc2n1Cc1ccc(F)cc1Cl | 192 to 193 °C |
| CCCN(C(C)C)S(=O)(=O)NC(=O)c1cc(-n2c(=O)cc(C(F)(F)F)n(C)c2=S)c(F)cc1Cl | 74 to 75 °C |
| O=C(NCc1ccccc1)c1ccccc1-c1ccccc1CNS(=O)(=O)c1cccc([N+](=O)[O-])c1 | 175 °C |
| CC(C)c1cccc(C(C)C)c1NC(=O)CC(=O)C(c1ccccc1)c1ccccc1 | 153 to 155 °C |
| COC(=O)c1cc(O)ccc1NC(=O)c1ccc(Cl)cc1Cl | 181 to 182 °C |
| COC(=O)CC[C@H](NC(=O)c1ccc(I)cc1F)C(=O)OC | 94 to 96 °C |
| O=C(O)c1ccc(CNC=C2C(=O)c3ccccc3OC2c2ccccc2)cc1 (centres undefined) | 195 to 200 °C |
| COc1cc2c(cc1OC)C1(CCC(C(=O)O)(C(=O)O)CC1)N(C(=O)OCc1ccccc1)CC2 | 181 to 182 °C |
| CCCOc1ccccc1-c1ncc(C(=O)NC)c(=O)[nH]1 | 190 to 191 °C |
| CCCCn1c(=O)c2nc(C(=O)OCC)cn2c2ccccc21 | 205 to 209 °C |
| CC(CC1CCNCC1)c1c[nH]c2ccccc12 (centres undefined) | 125 °C |
